# method.summary: Caco-2 membrane permeability, improved method as used in the following Examples (96-well, 20 to 24 h preincubation)
# Format: in vitro ADME
# condition.details: human, Caco-2, Caco-2 (cm/sec)
Positions of bridges follow the written chain, without caps; N, C: chain ends. Non-standard residues stand in square brackets, D forms with d. Residues, ends and D or L forms follow the SMILES beside them. *: point of attachment. NMeW = CN[C@@H](Cc1c[nH]c2ccccc12)C(=O)O; NMeF = CN[C@@H](Cc1ccccc1)C(=O)O; NMeL = CN[C@@H](CC(C)C)C(=O)O; NMeA = CN[C@@H](C)C(=O)O; Piperidide = C1CCN(*)CC1; Sar = CNCC(=O)O; tBu = CC(C)(C)*
This listing pairs compounds with measured Papp A→B at 180 min.
// units = ×10⁻⁶ cm/s; emit number, no label

Some entries whose results are on file:
[
  {
    "compound": "CC(C)C[C@@H]1NC(=O)[C@H](Cc2c[nH]c3ccccc23)N(C)C(=O)[C@@H](C(C)C)NC(=O)C[C@@H](C(=O)N2CCCCC2)NC(=O)[C@H](CC(C)C)N(C)C(=O)[C@H](CC(C)C)N(C)C(=O)[C@H](COC(C)(C)C)NC(=O)[C@H](CC(C)C)N(C)C(=O)CN(C)C(=O)[C@H]([C@@H](C)O)NC(=O)[C@H](CC(C)C)N(C)C1=O [pd106] ([dV][NMeW]L[NMeL]T[Sar][NMeL]S(tBu)[NMeL][NMeL]D-Piperidide; lactam N-11)",
    "Papp A→B at 180 min (×10⁻⁶ cm/s)": 0.36
  },
  {
    "compound": "CC(C)C[C@@H]1NC(=O)[C@H](Cc2ccccc2)N(C)C(=O)[C@@H]2CCCN2C(=O)C[C@@H](C(=O)N2CCCCC2)NC(=O)[C@H](Cc2ccccc2)N(C)C(=O)[C@H](Cc2ccccc2)N(C)C(=O)[C@H](COC(C)(C)C)NC(=O)[C@H](CC(C)C)N(C)C(=O)CN(C)C(=O)[C@H]([C@@H](C)O)NC(=O)[C@H](CC(C)C)N(C)C1=O [pd203] (P[NMeF]L[NMeL]T[Sar][NMeL]S(tBu)[NMeF][NMeF]D-Piperidide; lactam N-11)",
    "Papp A→B at 180 min (×10⁻⁶ cm/s)": 2.1
  }
]

Lab note: next compound to report on.
Kindly indicate its recorded Papp A→B at 180 min. Item: CC(C)C[C@@H]1NC(=O)[C@H](CC(C)C)N(C)C(=O)[C@H](C)N(C)C(=O)C[C@@H](C(=O)N2CCCCC2)NC(=O)[C@H](CC(C)C)N(C)C(=O)[C@H](Cc2ccccc2)N(C)C(=O)[C@H](Cc2ccccc2)N(C)C(=O)[C@H]([C@@H](C)O)NC(=O)[C@H](Cc2ccccc2)N(C)C1=O [pd211] ([NMeA][NMeL]L[NMeF]T[NMeF][NMeF][NMeL]D-Piperidide; lactam N-9)
1.4

###

# method.summary: Caco-2 membrane permeability, improved method as used in the following Examples (96-well, 20 to 24 h preincubation)
# Assay type: in vitro ADME
# condition.details: human, Caco-2, Caco-2 (cm/sec)
Starred links: 1 amine or outer side, 2 acyl side, 3 side chain; linkers in the order of their positions; H or OH if unused. Positions of bridges follow the written chain, without caps; N, C: chain ends. Non-standard residues stand in square brackets, D forms with d. Residues, ends and D or L forms follow the SMILES beside them. *: point of attachment. NMeW = CN[C@@H](Cc1c[nH]c2ccccc12)C(=O)O; NMeF = CN[C@@H](Cc1ccccc1)C(=O)O; NMeGABA = CN(CCCC(=O)[*:2])[*:1]; NMeI = CC[C@H](C)[C@H](NC)C(=O)O; NMeL = CN[C@@H](CC(C)C)C(=O)O; NMeA = CN[C@@H](C)C(=O)O; Piperidide = C1CCN(*)CC1; Sar = CNCC(=O)O; tBu = CC(C)(C)*
readout.type: Papp A→B at 180 min

[
  {
    "compound": "CC[C@H](C)[C@@H]1NC(=O)[C@H](CC(C)C)N(C)C(=O)CCCN(C)C(=O)C[C@@H](C(=O)N2CCCCC2)NC(=O)[C@H](CC(C)C)N(C)C(=O)[C@H](C)N(C)C(=O)[C@H](Cc2ccc(O)cc2)NC(=O)[C@H](CC(C)C)N(C)C(=O)[C@H](COC(C)(C)C)NC(=O)[C@H](CC(C)C)N(C)C(=O)[C@H](Cc2ccccc2)N(C)C1=O [pd129] ([NMeGABA][NMeL]I[NMeF][NMeL]S(tBu)[NMeL]Y[NMeA][NMeL]D-Piperidide; lactam N-11)",
    "result.value": "0.16 ×10⁻⁶ cm/s"
  }
]

Kindly indicate its recorded Papp A→B at 180 min. Item: CC[C@H](C)[C@H]1C(=O)N[C@@H]([C@@H](C)O)C(=O)N(C)CC(=O)N(C)[C@@H](CC(C)C)C(=O)N[C@H](C(=O)N2CCCCC2)CC(=O)N(C)[C@@H](C)C(=O)N[C@@H](CC(C)C)C(=O)N(C)[C@@H](CC(C)C)C(=O)N(C)[C@@H](Cc2c[nH]c3ccccc23)C(=O)N[C@@H](C(C)C)C(=O)N(C)[C@@H](CC(C)C)C(=O)N1C [pd102] ([NMeA]L[NMeL][NMeW]V[NMeL][NMeI]T[Sar][NMeL]D-Piperidide; lactam N-11)
1.1 ×10⁻⁶ cm/s

###

# method.summary: Caco-2 membrane permeability, improved method as used in the following Examples (96-well, 20 to 24 h preincubation)
# Assay type: in vitro ADME
# condition.details: human, Caco-2, Caco-2 (cm/sec)
Positions of bridges follow the written chain, without caps; N, C: chain ends. Non-standard residues stand in square brackets, D forms with d. Residues, ends and D or L forms follow the SMILES beside them. *: point of attachment. Phe(4-CF3) = N[C@@H](Cc1ccc(C(F)(F)F)cc1)C(=O)O; Tyr(3-F) = N[C@@H](Cc1ccc(O)c(F)c1)C(=O)O; NMeF = CN[C@@H](Cc1ccccc1)C(=O)O; NMeI = CC[C@H](C)[C@H](NC)C(=O)O; NMeL = CN[C@@H](CC(C)C)C(=O)O; NMeA = CN[C@@H](C)C(=O)O; Piperidide = C1CCN(*)CC1; Sar = CNCC(=O)O
Kindly return TRUE if reported Papp A→B at 180 min is no lower than 2 nm/s; return FALSE if it is lower.

Examples with answers:
[
  {
    "molecule": "CC[C@H](C)[C@H]1C(=O)N[C@@H](Cc2ccc(O)cc2)C(=O)N(C)CC(=O)N(C)[C@@H](CC(C)C)C(=O)N[C@H](C(=O)N2CCCCC2)CC(=O)N(C)[C@@H](C)C(=O)N[C@@H](CC(C)C)C(=O)N(C)[C@@H](C)C(=O)N(C)[C@@H](Cc2ccccc2)C(=O)N[C@@H](C(C)C)C(=O)N(C)[C@@H](C)C(=O)N1C [pd116] ([NMeA]L[NMeA][NMeF]V[NMeA][NMeI]Y[Sar][NMeL]D-Piperidide; lactam N-11)",
    "label": "FALSE"
  },
  {
    "molecule": "CC[C@H](C)[C@H]1C(=O)N[C@@H](Cc2c[nH]c3ccccc23)C(=O)N(C)CC(=O)N(C)[C@@H](C)C(=O)N[C@H](C(=O)N2CCCCC2)CC(=O)N(C)[C@@H](C)C(=O)N[C@@H](CC(C)C)C(=O)N(C)[C@@H](CC(C)C)C(=O)N(C)[C@@H](CC(C)C)C(=O)N[C@@H](C)C(=O)N(C)[C@@H](CC(C)C)C(=O)N1C [pd101] ([NMeA]L[NMeL][NMeL]A[NMeL][NMeI]W[Sar][NMeA]D-Piperidide; lactam N-11)",
    "label": "FALSE"
  },
  {
    "molecule": "CC(C)C[C@@H]1NC(=O)[C@H](C)N(C)C(=O)C[C@@H](C(=O)N2CCCCC2)NC(=O)[C@H](CC(C)C)N(C)C(=O)CN(C)C(=O)[C@H](Cc2ccc(O)c(F)c2)NC(=O)[C@H](CC(C)C)N(C)C(=O)[C@H](C)N(C)C(=O)[C@H](C)NC(=O)[C@H](Cc2ccccc2)N(C)C(=O)[C@H](CC(C)C)N(C)C1=O [pd120] ([NMeA]L[NMeL][NMeF]A[NMeA][NMeL][Tyr(3-F)][Sar][NMeL]D-Piperidide; lactam N-11)",
    "label": "TRUE"
  }
]

Check if Papp A→B at 180 min >= 2 nm/s (inclusive). Item: CC(C)C[C@H]1C(=O)N[C@@H]([C@@H](C)O)C(=O)N2CCC[C@H]2C(=O)N(C)[C@@H](C)C(=O)N[C@@H](Cc2ccc(C(F)(F)F)cc2)C(=O)N(C)[C@@H](CC(C)C)C(=O)N(C)[C@@H](CC(C)C)C(=O)N[C@H](C(=O)N2CCCCC2)CC(=O)N1C [pd136] ([NMeL]TP[NMeA][Phe(4-CF3)][NMeL][NMeL]D-Piperidide; lactam N-8)
TRUE
